B1: TPR t1 (parent)
chain: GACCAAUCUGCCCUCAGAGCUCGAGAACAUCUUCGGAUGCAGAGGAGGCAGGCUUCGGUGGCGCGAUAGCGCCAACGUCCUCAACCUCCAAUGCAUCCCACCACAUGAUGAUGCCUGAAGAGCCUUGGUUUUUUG

Variants of: B1
Assay: polymerase ribozyme fitness, log enrichment relative to wild type (log ratio); higher = more active; in vitro selection for triplet polymerase activity
endpoint name: polymerase ribozyme fitness (log ratio)

>  <variant code>
A16U C104U

>  <polymerase ribozyme fitness (log ratio)>
-1.25

$$$$

### Prompt Would you kindly share the measured polymerase ribozyme fitness (log ratio) for G45A A46U U55C C89U U131A ?
### Response -0.91

### Prompt Would you kindly share the measured polymerase ribozyme fitness (log ratio) for U9A G45U C73U C98U ?
### Response -0.532

### Prompt Would you kindly share the measured polymerase ribozyme fitness (log ratio) for A27G C115A ?
### Response -3.25

### Prompt Would you kindly share the measured polymerase ribozyme fitness (log ratio) for U55G C70G ?
### Response -2.34

### Prompt Would you kindly share the measured polymerase ribozyme fitness (log ratio) for G10U G47U A74G G113U C123G U126A ?
### Response -3.52

### Prompt Would you kindly share the measured polymerase ribozyme fitness (log ratio) for A2G G110A ?
### Response -1.38
